Assay: method code SF-AS, from DOI: 10.1002/jps.2600771105, PMID: 3225751
Conditions: pH 1.0
Threshold check on logD: at or above 1 gives true (1), strictly below gives false (0).

## Input Can `CCCCC1(CC)C(=O)NC(=O)NC1=O` be said to have logD at or above 1?
## Output true (1)

Now turn to the next molecule.
## Input Can `CC(C)(C)C1C(=O)NC(=O)NC1=O` be said to have logD at or above 1?
## Output false (0)

###

Assay: method code SF-AS, from DOI: 10.1002/jps.2600771105, PMID: 3225751
Settings: pH 1.0
Classification by logD | ranges: low end = under 0.8, middle = from 0.8 up to 2, high end = 2 and over

Examples with answers:
## Input Bin? `CC(C)C1C(=O)NC(=O)NC1=O`
## Output low end

## Input Bin? `C=CCC1(C(C)(C)C)C(=O)NC(=O)NC1=O`
## Output middle

## Input Bin? `CCCC1(CCC)C(=O)NC(=O)NC1=O`
## Output middle

Further cases:
## Input Bin? `CCCC1(CCC)C(=O)NC(=S)NC1=O`
## Output high end

## Input Bin? `CCC1(CC)C(=O)NC(=S)NC1=O`
## Output middle

## Input Bin? `CC(C)C1(C(C)C)C(=O)NC(=O)NC1=O`
## Output middle

## Input Bin? `CC1(C)C(=O)NC(=S)NC1=O`
## Output low end

## Input Bin? `CCCCC1(CCCC)C(=O)NC(=O)NC1=O`
## Output high end

## Input Bin? `CC(C)C1(C)C(=O)NC(=O)NC1=O`
## Output low end

## Input Bin? `CCC1(C(C)(C)C)C(=O)NC(=O)NC1=O`
## Output middle
